- testTarget: HLA-G expressed on the cell surface (human, UniProt P17693 25-338)
- methodNotes: cell-based or functional assay
metric: EC50 (nM), ADCC reporter assay on SKOV-3/HLA-G cells, afucosylated antibody
Your answer should be a plain number; it is taken to be in nM.

Request: I'd like to know its EC50 (nM), ADCC reporter assay on SKOV-3/HLA-G cells, afucosylated antibody. The binder in question is Afucosylated 2F1HS6LS#46 (antibody, human IgG1, kappa, V domains shown, afucosylated glycan (antibody produced with 400 µM 2-deoxy-2-fluoro-L-fucose in the medium)) VH: EVQLVESGGGLVQPGGSLRLSCAASGFTFSDYAMSWVRQAPGKGLEWVSRISQSGSYTYYADSVKGRFTISRDNSKNTLYLQMNSLRAEDTAVYYCAKEGTSSYRGWMDVWGQGTLVTVSS VL: DIQMTQSPSSLSASVGDRVTITCRASQSISNWLNWYQQKPGKAPKLLIYATSRLQSGVPSRFSGSGSGTDFTLTISSLQPEDFATYYCQQSYSTPWTFGQGTKVEIKR
Response: 0.02
